# assay target: GST-SND1(1-203) (Arabidopsis thaliana, UniProt Q9LPI7 1-203)
# Sequence: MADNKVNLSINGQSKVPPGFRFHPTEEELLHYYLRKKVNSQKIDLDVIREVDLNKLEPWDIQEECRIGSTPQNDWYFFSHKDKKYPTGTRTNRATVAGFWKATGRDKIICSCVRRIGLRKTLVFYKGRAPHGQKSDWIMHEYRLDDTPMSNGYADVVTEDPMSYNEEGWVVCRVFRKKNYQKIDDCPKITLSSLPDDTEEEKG
# assay details: universal protein binding microarray (PBM); high values mean tight binding
# measurement setup: protein: recombinant; tags: GST; chain copies: 2; dsDNA, one strand shown
value kind: binding signal (E-score)
Give the value in E-score but do not write E-score after it.

Consider the sequence TACGTAAA and give its measured binding signal.
0.43

====

# assay target: GST-ANAC055(1-171) (Arabidopsis thaliana, UniProt Q9LDY8 1-171)
# Sequence: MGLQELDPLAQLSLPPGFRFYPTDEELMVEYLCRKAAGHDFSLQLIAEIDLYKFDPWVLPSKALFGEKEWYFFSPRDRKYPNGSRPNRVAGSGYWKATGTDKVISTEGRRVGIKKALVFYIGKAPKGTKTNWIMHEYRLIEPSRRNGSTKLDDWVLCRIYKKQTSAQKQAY
# assay details: universal protein binding microarray (PBM); high values mean tight binding
# measurement setup: protein: recombinant; tags: GST; chain copies: 2; dsDNA, one strand shown
Output Condition met for records whose binding signal is lower than 0.1 E-score, Condition not met for records at or above 0.1 E-score.

GCCGTGTA : Condition not met
TAACGTAA : Condition not met
AAGCAAAG : Condition not met
GCGTAATA : Condition not met

Quick check: does TCGGTCAA have binding signal under 0.1 E-score?
Condition met

Quick check: does AAGTCATC have binding signal under 0.1 E-score?
Condition met

Quick check: does ACGCCAAC have binding signal under 0.1 E-score?
Condition not met

Quick check: does TCACGTCA have binding signal under 0.1 E-score?
Condition not met

Quick check: does TACGCAAA have binding signal under 0.1 E-score?
Condition not met

Quick check: does AATACGCA have binding signal under 0.1 E-score?
Condition not met

Quick check: does ATGTCGTG have binding signal under 0.1 E-score?
Condition not met

Quick check: does CACACGTC have binding signal under 0.1 E-score?
Condition not met

Quick check: does AAAGGAAA have binding signal under 0.1 E-score?
Condition not met

Quick check: does CTAACGTA have binding signal under 0.1 E-score?
Condition not met

Quick check: does ACGGAACT have binding signal under 0.1 E-score?
Condition not met

Quick check: does CACGTAAC have binding signal under 0.1 E-score?
Condition not met

Quick check: does ACGCCACG have binding signal under 0.1 E-score?
Condition not met

Quick check: does ATTACGCA have binding signal under 0.1 E-score?
Condition not met

Quick check: does GGATTGAC have binding signal under 0.1 E-score?
Condition met

Quick check: does GTACGAAA have binding signal under 0.1 E-score?
Condition not met

Quick check: does ACAAGTAA have binding signal under 0.1 E-score?
Condition not met

Quick check: does AGTCTGAC have binding signal under 0.1 E-score?
Condition met

Quick check: does ATGCGTAA have binding signal under 0.1 E-score?
Condition not met

Quick check: does ACACTCAA have binding signal under 0.1 E-score?
Condition not met

Quick check: does GACTTGAC have binding signal under 0.1 E-score?
Condition not met

Quick check: does ACGGAACA have binding signal under 0.1 E-score?
Condition not met

Quick check: does AAGGAAAG have binding signal under 0.1 E-score?
Condition not met

Quick check: does CCAAGCAA have binding signal under 0.1 E-score?
Condition met

Quick check: does GCACGCAA have binding signal under 0.1 E-score?
Condition not met

Quick check: does GTCACGCA have binding signal under 0.1 E-score?
Condition not met

Quick check: does AAACGTGT have binding signal under 0.1 E-score?
Condition not met

====

# assay target: GST-NAP(1-166) (Arabidopsis thaliana, UniProt O49255 1-166)
# Sequence: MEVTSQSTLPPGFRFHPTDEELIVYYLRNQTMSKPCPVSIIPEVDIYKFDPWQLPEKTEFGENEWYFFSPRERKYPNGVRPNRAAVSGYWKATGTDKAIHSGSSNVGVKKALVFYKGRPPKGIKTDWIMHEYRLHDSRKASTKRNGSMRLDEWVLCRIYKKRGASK
# assay details: universal protein binding microarray (PBM); high values mean tight binding
# measurement setup: protein: recombinant; tags: GST; chain copies: 2; dsDNA, one strand shown
Label -1 if binding signal falls below 0.1 E-score; label 1 in every other case.

For orientation, consider the following solved cases.
ATTGACTA : -1
TAAGGTCA : 1
GTTGGTCA : 1
CTTACTTA : 1
GTACGGAA : 1
ATGGCGTG : 1
ATAGCGTA : 1
ACGGAACT : 1

Identify whether the reported binding signal of the following sequence is 0.1 E-score or greater: ACGTTACC
1

Identify whether the reported binding signal of the following sequence is 0.1 E-score or greater: TACGTTAA
1

Identify whether the reported binding signal of the following sequence is 0.1 E-score or greater: ACGTTAGC
-1

====

# assay target: GST-NTL6(1-168) (Arabidopsis thaliana, UniProt Q9SCK6 1-168)
# Sequence (Q9SCK6 1-168): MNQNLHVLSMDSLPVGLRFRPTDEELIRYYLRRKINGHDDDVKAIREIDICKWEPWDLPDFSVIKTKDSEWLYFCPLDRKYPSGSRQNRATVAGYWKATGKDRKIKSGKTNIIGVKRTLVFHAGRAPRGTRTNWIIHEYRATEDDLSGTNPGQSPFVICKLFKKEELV
# assay details: universal protein binding microarray (PBM); high values mean tight binding
# measurement setup: protein: recombinant; tags: GST; chain copies: 2; dsDNA, one strand shown
value kind: binding signal
State the value with its unit after it.

CACGCTAA : 0.0834 E-score
ACACGGAA : 0.0747 E-score
TGAAGTAA : 0.377 E-score
AAGGGAAA : 0.166 E-score
CTTTCTTC : 0.295 E-score
GGAGGGAA : 0.0867 E-score
AGGGTAAG : 0.245 E-score
CTGACTTA : 0.195 E-score
AGGAAAGC : 0.253 E-score
CGAAGTAA : 0.448 E-score

Consider the sequence TTACGGAA and give its measured binding signal.
0.151 E-score

Consider the sequence TTAAGAAA and give its measured binding signal.
0.461 E-score

Consider the sequence AAGTCAGA and give its measured binding signal.
0.0583 E-score

Consider the sequence ACGTAACG and give its measured binding signal.
0.0652 E-score

Consider the sequence TAAGAAAA and give its measured binding signal.
0.454 E-score

Consider the sequence AAGTAAGT and give its measured binding signal.
0.412 E-score

Consider the sequence ATAAGGAA and give its measured binding signal.
0.423 E-score

Consider the sequence CTTACGTA and give its measured binding signal.
0.161 E-score

Consider the sequence CAAGTTAC and give its measured binding signal.
0.256 E-score

Consider the sequence GCTAAGGA and give its measured binding signal.
0.41 E-score

Consider the sequence TGACTTAA and give its measured binding signal.
0.342 E-score

====

binding signal by entry:
# assay target: GST-ANAC055(1-171) (Arabidopsis thaliana, UniProt Q9LDY8 1-171)
# Sequence: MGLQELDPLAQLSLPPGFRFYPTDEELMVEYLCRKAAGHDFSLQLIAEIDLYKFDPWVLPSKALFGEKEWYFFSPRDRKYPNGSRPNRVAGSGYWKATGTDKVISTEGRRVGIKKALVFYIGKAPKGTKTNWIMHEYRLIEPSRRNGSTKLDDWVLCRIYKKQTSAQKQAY
# assay details: universal protein binding microarray (PBM); high values mean tight binding
# measurement setup: protein: recombinant; tags: GST; chain copies: 2; dsDNA, one strand shown
Give the value in E-score but do not write E-score after it.

AATTACGC : 0.155

Consider the sequence GCGTGTTA and give its measured binding signal.
0.174

Consider the sequence CTTGACCA and give its measured binding signal.
0.104

====

# assay target: GST-ANAC019 NAC domain (Arabidopsis thaliana, UniProt Q9C932 14-162)
# Sequence: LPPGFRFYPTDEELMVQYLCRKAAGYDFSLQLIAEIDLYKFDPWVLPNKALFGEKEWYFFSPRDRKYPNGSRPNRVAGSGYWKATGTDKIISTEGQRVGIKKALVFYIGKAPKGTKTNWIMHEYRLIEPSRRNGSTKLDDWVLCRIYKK
# assay details: universal protein binding microarray (PBM); transcription factors of Arabidopsis thaliana; high values mean tight binding
# measurement setup: protein: recombinant; tags: GST; chain copies: 2; dsDNA, one strand shown
value kind: binding signal (E-score)
Give the value in E-score but do not write E-score after it.

CACGAAAG : 0.25

Consider the sequence ATGACGTG and give its measured binding signal.
0.311

Consider the sequence AATACGCA and give its measured binding signal.
0.196

Consider the sequence GTTTCTTA and give its measured binding signal.
0.141

Consider the sequence AAACACGC and give its measured binding signal.
0.261

Consider the sequence ATGCCGTG and give its measured binding signal.
0.453

Consider the sequence CGTCAACA and give its measured binding signal.
0.0912

Consider the sequence ACGCAAGT and give its measured binding signal.
0.277

Consider the sequence GAGTCAAC and give its measured binding signal.
0.14

Consider the sequence ACGTATCT and give its measured binding signal.
0.425

Consider the sequence CACGCTAG and give its measured binding signal.
0.115

FYI, the data here is from paper PMC4081100.
